Hey, just so you know, these numbers are from paper PMC4506051.

- Assay Protocol: Randomized crossover quantitative trial: plasma pharmacokinetics of nine ingredients after rikkunshito 2.5, 5.0 or 7.5 g
- Measurement Setup: human, plasma, po, 7.5 g, C max, rikkunshito 7.5 g single oral, n = 19; geometric mean (95% CI)
Reported Endpoint: Cmax (ng/mL)
Give a bare numeral; the unit ng/mL is implied.

Q. Any idea what its Cmax is? The compound is O=C(O)/C=C/C#CC#C/C=C/c1ccco1 [Atractylodin carboxylic acid]
A. 14.3

Q. Now this one: COc1ccc(-c2oc3c(OC)c(OC)c(OC)c(OC)c3c(=O)c2OC)cc1OC [Heptamethoxyflavone, 3,3′,4′,5,6,7,8-heptamethoxyflavone]
A. 0.105

Q. Then this compound: CC1(C)[C@@H](O)CC[C@]2(C)[C@H]3C(=O)C=C4[C@@H]5C[C@@](C)(C(=O)O)CC[C@]5(C)CC[C@@]4(C)[C@]3(C)CC[C@@H]12 [18β-Glycyrrhetinic acid]
A. 55.6

Q. Okay, and O=C1C[C@@H](c2ccc(O)cc2)Oc2cc(O)cc(O)c21 [Naringenin] ?
A. 1.15

====

- Assay Protocol: Exploratory trial: ingredients in β-glucuronidase (enzyme)-treated plasma
- Type: in vivo, human
- Measurement Setup: human, plasma, oral; β-glucuronidase-treated; 0.5 h; rikkunshito 7.5 g; mean ± S.D., n = 4
Kindly state concentration at 0.5 h for each of the entries shown.
A number alone suffices; assume ng/mL.

Q. For O=C1C[C@@H](c2ccc(O)cc2)Oc2cc(O)cc(O)c21 [Naringenin] , what is its reported concentration at 0.5 h?
A. 0.311

Q. Query COc1c(CC=C(C)C)c(O)cc2oc(=O)c(-c3ccc(O)cc3O)cc12 [Glycycoumarin] next
A. 2.34

Q. Input O=C(/C=C/c1ccc(O)cc1)c1ccc(O)cc1O [Isoliquiritigenin]
A. 0.0872

====

- Assay Protocol: Exploratory trial: amount of rikkunshito ingredients in urine
- Assay type: in vivo, human
- Measurement Setup: 0–4 h after single oral rikkunshito 7.5 g; mean ± S.D., n = 4
Reported Endpoint: Amount in urine, 0–4 h (ng)
Respond with the bare value in ng.

Q. Quick one: Amount in urine, 0–4 h of `COc1ccc([C@@H]2CC(=O)c3c(O)cc(O[C@@H]4O[C@H](CO[C@@H]5O[C@@H](C)[C@H](O)[C@@H](O)[C@H]5O)[C@@H](O)[C@H](O)[C@H]4O)cc3O2)cc1O` ?
A. 184

Q. Similarly, `COc1c(CC=C(C)C)c(O)cc2oc(=O)c(-c3ccc(O)cc3O)cc12` ?
A. 2300

Q. Next entry: CC(C)=CCC[C@](C)(O[C@@H]1O[C@H](CO[C@@H]2OC[C@H](O)[C@H](O)[C@H]2O)[C@@H](O)[C@H](O)[C@H]1O)[C@H]1CC[C@]2(C)[C@@H]1[C@H](O)C[C@@H]1[C@@]3(C)CC[C@H](O[C@@H]4O[C@H](CO)[C@@H](O)[C@H](O)[C@H]4O[C@@H]4O[C@H](CO)[C@@H](O)[C@H](O)[C@H]4O)C(C)(C)[C@@H]3CC[C@]12C [Ginsenoside Rb2]
A. 202

====

- Assay Protocol: Exploratory trial: plasma concentration of rikkunshito ingredients after single oral rikkunshito 7.5 g
- Type: in vivo
- Measurement Setup: human, in vivo; 0.5 h after single oral rikkunshito 7.5 g; mean ± S.D., n = 4; read-out: Plasma concentration, 0.5 h
Reported Endpoint: concentration at 0.5 h (ng/mL)
Field format: number, assumed ng/mL, no unit text.

Q. State the recorded concentration at 0.5 h for this entry: C/C=C/C#CC#C/C=C/c1ccco1 [Atractylodin]
A. 1.19

====

- Assay Protocol: Exploratory trial: plasma concentration of rikkunshito ingredients after single oral rikkunshito 7.5 g
- Assay type: in vivo
- Measurement Setup: 0 h (preadministration); single oral rikkunshito 7.5 g; mean ± S.D., n = 4
Reported Endpoint: Plasma concentration, 0 h

compound="O=C1C[C@@H](c2ccc(O[C@@H]3O[C@H](CO)[C@@H](O)[C@H](O)[C@H]3O)cc2)Oc2cc(O)ccc21 [Liquiritin]" reported_endpoint="Plasma concentration, 0 h" observed_result=BQL
compound="COc1ccc(-c2oc3c(OC)c(OC)c(OC)c(OC)c3c(=O)c2OC)cc1OC [Heptamethoxyflavone, 3,3′,4′,5,6,7,8-heptamethoxyflavone]" reported_endpoint="Plasma concentration, 0 h" observed_result=BQL
compound="C[C@@H]1O[C@@H](O[C@H]2[C@H](Oc3cc(O)c4c(c3)O[C@H](c3ccc(O)cc3)CC4=O)O[C@H](CO)[C@@H](O)[C@@H]2O)[C@H](O)[C@H](O)[C@H]1O [Naringin]" reported_endpoint="Plasma concentration, 0 h" observed_result=BQL
compound="C=C(CC[C@@H](C(=O)O)[C@H]1[C@H](O)C[C@@]2(C)C3=C(CC[C@]12C)[C@@]1(C)CC[C@H](OC(C)=O)C(C)(C)[C@@H]1CC3)C(C)C [Pachymic acid]" reported_endpoint="Plasma concentration, 0 h" observed_result="0.14 ± 0.184 ng/mL"
compound="COc1c(CC=C(C)C)c(O)cc2oc(=O)c(-c3ccc(O)cc3O)cc12 [Glycycoumarin]" reported_endpoint="Plasma concentration, 0 h" observed_result=BQL

Consider now this further compound.
Q. For the compound COc1ccc(-c2cc(=O)c3c(OC)c(OC)c(OC)c(OC)c3o2)cc1OC [Nobiletin] , what Plasma concentration, 0 h is on record?
A. BQL

====

- Assay Protocol: clinical
- Measurement Setup: human, in vivo, po, AUC0-last, rikkunshito 7.5 g single oral, n = 19; geometric mean (95% CI)
Reported Endpoint: AUC(0-t) (ng·h/mL)
Give the value in ng·h/mL but do not write ng·h/mL after it.

Q. Item `C=C(CC[C@@H](C(=O)O)[C@H]1[C@H](O)C[C@@]2(C)C3=C(CC[C@]12C)[C@@]1(C)CC[C@H](OC(C)=O)C(C)(C)[C@@H]1CC3)C(C)C` has what recorded AUC(0-t)?
A. 1.21

====

- Assay Protocol: Exploratory trial: ingredients in β-glucuronidase (enzyme)-treated plasma
- Assay type: in vivo, human
- Measurement Setup: human, in vivo
Reported Endpoint: concentration at 8 h (ng/mL)
Kindly answer with a numeric value in ng/mL, unit omitted.

Q. I'd like to know its concentration at 8 h. The molecule in question is COc1ccc([C@@H]2CC(=O)c3c(O)cc(O)cc3O2)cc1O [Hesperetin]
A. 0.307

====

- Assay Protocol: Exploratory trial: ingredients in β-glucuronidase (enzyme)-treated plasma
- Type: in vivo, human
- Measurement Setup: human, in vivo
- Procedure: In the first exploratory trial, 20-mL blood samples were collected from the cutaneous vein in the subjects’ forearm via a blood sampling tube that contained heparin at 0 (preadministration), 0.5, 1, 2, 4, and 8 h after a single oral administration of rikkunshito (Lot E24652). […] For quantification of 30 ingredients other than atractylodin and synephrine, 25 µL of standard solution or methanol was added to 500 µL plasma or urine samples followed by mixing. […]
Reported Endpoint: concentration at 4 h
# number then unit; no other words

Q. Find the recorded concentration at 4 h belonging to `COc1ccc([C@@H]2CC(=O)c3c(O)cc(O)cc3O2)cc1O` and report it.
A. 0.799 ng/mL

====

- Assay Protocol: Exploratory trial: plasma concentration of rikkunshito ingredients after single oral rikkunshito 7.5 g
- Format: in vivo
- Measurement Setup: human, in vivo; 2 h after single oral rikkunshito 7.5 g; mean ± S.D., n = 4; read-out: Plasma concentration, 2 h
Reported Endpoint: concentration at 2 h (ng/mL)
Supply the numeric figure in ng/mL, leaving out any unit text.

Q. Reported concentration at 2 h for `C/C=C/C#CC#C/C=C/c1ccco1` : what is it?
A. 0.863

====

- Assay Protocol: Stability of ingredients in gastric pH solution (pH 1.2, 37°C)
- Type: physicochemical
- Measurement Setup: 0.5 h, pH 1.2
Entry flag: Y if Stability in gastric pH solution, Quantitative value reaches 100 ng/mL; N if it does not.

Q. Could you tell me if the measured Stability in gastric pH solution, Quantitative value of CC(C)=CCC[C@](C)(O[C@@H]1O[C@H](CO)[C@@H](O)[C@H](O)[C@H]1O)[C@H]1CC[C@]2(C)[C@@H]1[C@H](O)C[C@@H]1[C@@]3(C)CC[C@H](O)C(C)(C)[C@@H]3[C@@H](O[C@@H]3O[C@H](CO)[C@@H](O)[C@H](O)[C@H]3O[C@@H]3O[C@@H](C)[C@H](O)[C@@H](O)[C@H]3O)C[C@]12C [Ginsenoside Re] reaches 100 ng/mL or more?
A. N

Q. What would you report for `O=C(/C=C/c1ccc(O)cc1)c1ccc(O)cc1O` ?
A. N

Q. Moving on to `C[C@@H]1O[C@@H](OC[C@H]2O[C@@H](Oc3cc(O)c4c(c3)O[C@H](c3ccc(O)cc3)CC4=O)[C@H](O)[C@@H](O)[C@@H]2O)[C@H](O)[C@H](O)[C@H]1O`
A. Y

Q. Repeat for the following compound: CC(C)=CCC[C@](C)(O[C@@H]1O[C@H](CO[C@@H]2O[C@@H](CO)[C@H](O)[C@H]2O)[C@@H](O)[C@H](O)[C@H]1O)[C@H]1CC[C@]2(C)[C@@H]1[C@H](O)C[C@@H]1[C@@]3(C)CC[C@H](O[C@@H]4O[C@H](CO)[C@@H](O)[C@H](O)[C@H]4O[C@@H]4O[C@H](CO)[C@@H](O)[C@H](O)[C@H]4O)C(C)(C)[C@@H]3CC[C@]12C [Ginsenoside Rc]
A. Y

Q. Same again, this time with `C[C@@H]1O[C@@H](O[C@H]2[C@H](Oc3cc(O)c4c(c3)O[C@H](c3ccc(O)cc3)CC4=O)O[C@H](CO)[C@@H](O)[C@@H]2O)[C@H](O)[C@H](O)[C@H]1O`
A. Y

Q. Can you check CCCCC[C@H](O)CC(=O)CCc1ccc(O)c(OC)c1 [[6]-Gingerol, [6]-Gingerol] next?
A. Y

Q. Follow-up entry: `COc1c(CC=C(C)C)c(O)cc2oc(=O)c(-c3ccc(O)cc3O)cc12`
A. N

Q. Thanks! And CC(C)=CCC[C@](C)(O[C@@H]1O[C@H](CO)[C@@H](O)[C@H](O)[C@H]1O)[C@H]1CC[C@]2(C)[C@@H]1[C@H](O)C[C@@H]1[C@@]3(C)CC[C@H](O)C(C)(C)[C@@H]3[C@@H](O[C@@H]3O[C@H](CO)[C@@H](O)[C@H](O)[C@H]3O)C[C@]12C [Ginsenoside Rg1] ?
A. Y

Q. // query: `COc1ccc(-c2cc(=O)c3c(OC)c(OC)c(OC)c(OC)c3o2)cc1OC`
A. N
